- Experimental Protocol: Oral bioavailability in dog
- Type: ADME, organism-based, Canis lupus familiaris
- Cond: in vivo
Outcome Measure: bioavailability (%)

Chemical String: CNc1cccc(CN2C(=O)N(Cc3cccc(NC)c3)[C@H](Cc3ccc4c(c3)OCCO4)[C@H](O)[C@@H](O)[C@H]2Cc2ccc3c(c2)OCCO3)c1
Outcome Measure: bioavailability
Experimental Value: 4.6

###

- System Under Test: Human immunodeficiency virus type 1 protease (Human immunodeficiency virus 1, UniProt Q72874)
Outcome Measure: Ki (nM)

Chemical String: CC(=O)c1cccc(CN2C(=O)N(Cc3cccc(C(C)=O)c3)[C@H](Cc3ccc4c(c3)OCCO4)[C@H](O)[C@@H](O)[C@H]2Cc2ccc3c(c2)OCCO3)c1
Experimental Value: 0.04

Chemical String: O=C1N(Cc2ccccc2)[C@H](Cc2ccc3c(c2)OCCO3)[C@H](O)[C@@H](O)[C@@H](Cc2ccc3c(c2)OCCO3)N1Cc1ccccc1
Experimental Value: 0.44

Chemical String: O=C1N(Cc2ccccc2)[C@H](Cc2ccc3c(c2)OCO3)[C@H](O)[C@@H](O)[C@@H](Cc2ccc3c(c2)OCO3)N1Cc1ccccc1
Experimental Value: 1

Chemical String: CNc1cccc(CN2C(=O)N(Cc3cccc(N)c3)[C@H](Cc3ccc4c(c3)OCCO4)[C@H](O)[C@@H](O)[C@H]2Cc2ccc3c(c2)OCCO3)c1
Experimental Value: 0.11

Chemical String: CN1CCOc2ccc(C[C@@H]3[C@H](O)[C@@H](O)[C@@H](Cc4ccc5c(c4)N(C)CCO5)N(Cc4ccccc4)C(=O)N3Cc3ccccc3)cc21
Experimental Value: 0.7

Chemical String: O=C1N(Cc2ccc3ccccc3c2)[C@H](Cc2ccc3c(c2)OCCO3)[C@H](O)[C@@H](O)[C@@H](Cc2ccc3c(c2)OCCO3)N1Cc1ccc2ccccc2c1
Experimental Value: 0.04

Chemical String: CC(=O)c1cc(CN2C(=O)N(Cc3ccc(F)c(C(C)=O)c3)[C@H](Cc3ccc4c(c3)OCCO4)[C@H](O)[C@@H](O)[C@H]2Cc2ccc3c(c2)OCCO3)ccc1F
Experimental Value: 0.64

Chemical String: COc1ccc(C[C@@H]2[C@H](O)[C@@H](O)[C@@H](Cc3ccc(OC)c(OC)c3)N(Cc3ccccc3)C(=O)N2Cc2ccccc2)cc1OC
Experimental Value: 6.4

Chemical String: CNc1cccc(CN2C(=O)N(Cc3cccc(NC)c3)[C@H](Cc3ccc4c(c3)OCCO4)[C@H](O)[C@@H](O)[C@H]2Cc2ccc3c(c2)OCCO3)c1
Experimental Value: 0.14

Chemical String: O=C1N(Cc2ccc(O)cc2)[C@H](Cc2ccc3c(c2)OCCO3)[C@H](O)[C@@H](O)[C@@H](Cc2ccc3c(c2)OCCO3)N1Cc1ccc(O)cc1
Experimental Value: 0.03

Chemical String: CC(=O)c1cccc(CN2C(=O)N(Cc3cccc(C(C)=O)c3)[C@H](Cc3ccc4c(c3)OCO4)[C@H](O)[C@@H](O)[C@H]2Cc2ccc3c(c2)OCO3)c1
Experimental Value: 0.043

Chemical String: O=C1N(CC2CC2)[C@H](Cc2ccc3c(c2)OCCO3)[C@H](O)[C@@H](O)[C@@H](Cc2ccc3c(c2)OCCO3)N1CC1CC1
Experimental Value: 0.27

# credit: ChEMBL document CHEMBL1130027
